- assayed_system: D(2) dopamine receptor (Homo sapiens)
- Sequence (P14416 whole entry, canonical isoform): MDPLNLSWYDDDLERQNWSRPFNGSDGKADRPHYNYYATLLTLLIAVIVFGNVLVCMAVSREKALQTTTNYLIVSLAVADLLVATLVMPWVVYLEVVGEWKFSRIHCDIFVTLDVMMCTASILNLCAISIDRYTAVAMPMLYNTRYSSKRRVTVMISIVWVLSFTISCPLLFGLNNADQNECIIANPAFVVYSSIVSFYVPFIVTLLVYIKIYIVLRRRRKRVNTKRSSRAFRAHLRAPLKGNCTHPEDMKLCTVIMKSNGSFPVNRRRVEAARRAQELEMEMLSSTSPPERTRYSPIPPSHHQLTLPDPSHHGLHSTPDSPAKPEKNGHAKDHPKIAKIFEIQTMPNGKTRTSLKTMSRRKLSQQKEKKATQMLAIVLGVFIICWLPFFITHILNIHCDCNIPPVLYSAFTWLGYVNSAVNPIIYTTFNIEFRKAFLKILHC
- test_method_notes: Agonist activity at human D2R isoform 2 stably expressed in HEK293 cells assessed as inhibition of forskolin-induced increase of cAMP accumulation preincubated for 10 mins followed by forskolin addition by Glosensor cAMP reagent based luminescence assay
- Assay type: functional, cell-based
pEC50: −log10 of the molar value.
endpoint_name: pEC50

Field: example entries. Status: answers known.
CCCN(CCCCc1cn(CCOCCOCCOCCn2cc(CCCCN(CCC)C3Cc4ccccc4C3)nn2)nn1)C1Cc2ccccc2C1 :: 8.14
C#CCCCCN(CCC)C1Cc2ccccc2C1 :: 8.47

a: CCCN(CCCCc1cn(CCOCCOCCOCCOCCn2cc(CCCCN(CCC)C3Cc4ccccc4C3)nn2)nn1)C1Cc2ccccc2C1
b: CCCN(CCCCNC(=O)c1ccc(-c2ccc(OCc3cn(CCOCCOCCOCCOCCn4cc(COc5ccc(-c6ccc(C(=O)NCCCCN(CCC)C7Cc8ccccc8C7)cc6)cc5)nn4)nn3)cc2)cc1)C1Cc2ccccc2C1
Ask | I'd appreciate it if you could identify which of a and b has the greater pEC50. Answer format: the label of the selected item.
Reply | a

###

- assayed_system: D(2) dopamine receptor (Homo sapiens)
- test_method_notes: Displacement of [3H]raclopride from human D2R isoform 2 stably expressed in HEK293 cell membranes at 1 uM measured after 1 hr by liquid scintillation counting method
- reported_conditions: Membrane, filed as agonist
Active and inactive are the calls of the source. No cut-off for these calls is given here.
endpoint_name: inhibition

CCCN(CCCCNC(=O)c1ccc(-c2ccc(OCc3cn(CCOCCOCCOCCn4cc(COc5ccc(-c6ccc(C(=O)NCCCCN(CCC)C7Cc8ccccc8C7)cc6)cc5)nn4)nn3)cc2)cc1)C1Cc2ccccc2C1 :: Active
CCCN(CCCCc1cn(CCOCCOCCOCCOCCOCCn2cc(CCCCN(CCC)C3Cc4ccccc4C3)nn2)nn1)C1Cc2ccccc2C1 :: Active
CCCN(CCCCc1cn(CCOCCOCCOCCOCCn2cc(CCCCN(CCC)C3Cc4ccccc4C3)nn2)nn1)C1Cc2ccccc2C1 :: Active
CCCN(CCCCNC(=O)c1ccc(-c2ccc(OCc3cn(CCOCCOCCOCCOCCn4cc(COc5ccc(-c6ccc(C(=O)NCCCCN(CCC)C7Cc8ccccc8C7)cc6)cc5)nn4)nn3)cc2)cc1)C1Cc2ccccc2C1 :: Active
CCCN(CCCCNC(=O)c1ccc(-c2ccc(OCc3cn(CCOCCOCCOCCOCCOCCn4cc(COc5ccc(-c6ccc(C(=O)NCCCCN(CCC)C7Cc8ccccc8C7)cc6)cc5)nn4)nn3)cc2)cc1)C1Cc2ccccc2C1 :: > 80%

We next turn to a different molecule, shown below.
Ask | Write down inhibition measured for item CCCN(CCCCc1cn(CCOCCOCCOCCn2cc(CCCCN(CCC)C3Cc4ccccc4C3)nn2)nn1)C1Cc2ccccc2C1
Reply | Active
